# Assay Protocol: Plasma concentration in healthy human undergoing fiber-optic bronchoscopy at 10 mg/kg, iv once daily for 3 days measured at 24 hrs after start of infusion by validated liquid chromatography
# Format: ADME, organism-based
# Set-up: dose 10 mg/kg, route intravenous
Parameter: concentration at 24 h
Report field: quantity (unit follows the number).

Exam item: GET /values?readout=concentration at 24 h&item= CCCCCCCCCCNCCN[C@@]1(C)C[C@H](O[C@H]2[C@H](Oc3c4cc5cc3Oc3ccc(cc3Cl)[C@@H](O)[C@@H](NC(=O)[C@@H](CC(C)C)NC)C(=O)N[C@@H](CC(N)=O)C(=O)N[C@H]5C(=O)N[C@H]3C(=O)N[C@H](C(=O)N[C@H](C(=O)O)c5cc(O)c(CNCP(=O)(O)O)c(O)c5-c5cc3ccc5O)[C@H](O)c3ccc(c(Cl)c3)O4)O[C@H](CO)[C@@H](O)[C@@H]2O)O[C@@H](C)[C@H]1O [TELAVANCIN]
Marked response: 7280 ng/mL
